Give measured polymerase ribozyme fitness (log ratio) for each item. Keep answers brief.
B1: TPR t1 (parent)
chain: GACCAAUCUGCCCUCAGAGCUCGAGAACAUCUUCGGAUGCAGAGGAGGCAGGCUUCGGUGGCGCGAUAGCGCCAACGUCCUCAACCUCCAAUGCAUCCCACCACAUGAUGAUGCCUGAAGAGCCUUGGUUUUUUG

- Variants of: B1
- assay method text: polymerase ribozyme fitness, log enrichment relative to wild type (log ratio); higher = more active; in vitro selection for triplet polymerase activity
Answers are plain numbers.

Some solved cases for reference:
# variant notation, polymerase ribozyme fitness (log ratio)
measured = [
    ("A24U A41G A43C U96A C102U A111U", -6.49),
    ("U9C G10A A37U", -0.108),
    ("C15U G47A G113C A121C", -4.25),
    ("C11A G77U U87G U106G G113C U125G", -4.71),
    ("C56G C88A C115U A119G", 1.4),
    ("G117U A119U C123U", -0.29),
    ("G39U U92C C115U A119U", -3.57),
    ("C28A G42A G77C G110U", -1.22),
]

// for each variant below, give its polymerase ribozyme fitness (log ratio)
1. C8A G51U C53G U81G C114A
2. G39C A41U G60A
3. G69U C82G
4. G110A G128U
5. A27C U67G G107A U109A C123G C124G

Result:
1. -5.79
2. -2.76
3. -1.46
4. -3.47
5. -6.73

Would you be so kind as to report polymerase ribozyme fitness (log ratio) for each listed record?
1. G60U C97A
2. U59G G71A
3. C97U G113A
4. C15U A16U G71A C115A

Result:
1: -5.24; 2: -3.25; 3: -1.5; 4: -3.96

# batch size: 5; output polymerase ribozyme fitness (log ratio) per entry
1. C31U C82U
2. G63A G113A
3. G48U C79U G135C
4. C70A G113U
5. C76A C89A

Result:
-5.12
-1.68
-1.81
-2.82
-3.18
